target: PHD-bromodomain of TRIM24 (Homo sapiens (Human), UniProt O15164); assay: TRIM24 binding alpha assay; settings: Alpha Assay binding to TRIM24; compounds 50 μM to 0.002 μM
Sequence (O15164 824-1006): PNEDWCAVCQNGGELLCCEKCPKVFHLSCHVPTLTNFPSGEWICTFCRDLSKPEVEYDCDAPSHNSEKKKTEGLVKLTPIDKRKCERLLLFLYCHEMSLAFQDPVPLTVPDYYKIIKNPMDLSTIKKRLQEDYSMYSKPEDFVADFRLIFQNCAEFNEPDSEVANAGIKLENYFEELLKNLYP
Value kind: IC50

[
  {
    "Compound": "Cc1nc(S(=O)(=O)Nc2cc3c(cc2Oc2cccc(OCC(=O)NCCCOCCOCCOCCCNC(=O)COc4cccc5c4C(=O)N(C4CCC(=O)NC4=O)C5=O)c2)n(C)c(=O)n3C)cn1C (stereo not shown)",
    "Measured": "> 500 nM"
  },
  {
    "Compound": "CCCOc1cc(OCCCCN(C)C)cc(Oc2cc3c(cc2NS(=O)(=O)c2cccc(C(=O)NCCCCCCCCNC(=O)COc4cccc5c4C(=O)N(C4CCC(=O)NC4=O)C5=O)c2)n(C)c(=O)n3C)c1 (stereo not shown)",
    "Measured": "< 50 nM"
  },
  {
    "Compound": "COc1ccc(S(=O)(=O)Nc2cc3c(cc2Oc2cccc(OCc4ccccc4)c2)n(C)c(=O)n3C)cc1OC [Cmpd B, reference compound]",
    "Measured": "50 to 100 nM"
  },
  {
    "Compound": "CCCOc1cccc(Oc2cc3c(cc2NS(=O)(=O)c2ccc(OC)c(OC)c2)n(C)c(=O)n3C)c1 [Cmpd D, reference compound]",
    "Measured": "< 50 nM"
  }
]
